// self-cleavage lookup, one value per entry
B1: Osa-1-4 twister ribozyme (parent)
chain: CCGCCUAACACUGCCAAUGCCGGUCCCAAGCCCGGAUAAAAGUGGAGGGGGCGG

Variants of: B1
Measurement Notes: self-cleavage, relative activity (ratio to wild type); higher = more cleavage; co-transcriptional
Quantity: self-cleavage

A28C A39C = 0.93
A46C C52U = 0.08
C15G G22C = 0.06
C21U C9G = 0.74
A28U A40U = 0.2
C9G U37G = 0.92
A28C G22U = 0.4
C11G C21A = 0.06
C27A G51U = 0.05
A29U G53U = 0.06
C15U C25U = 0.08
G19C G22A = 0.06
A36C C33U = 0.13
C31A G19C = 0.02
G22A G53U = 0.14
G53U U12G = 0.07
G23C G34U = 0.04
G22U G49C = 0.05
A7C G13U = 0.01
A10G A17C = 0.44
A8C G35C = 0.08
G51A U18A = 0.62
G47U G50C = 0.07
A8G U18C = 0.39
A40C A7C = 0.02
G19A U12A = 0.12
C27A G34C = 0.09
A40G G34C = 0.2
A29G U24C = 0.08
A28G U37A = 0.25
C11G G13U = 0.03
C27U U12A = 0.1
G22A G54C = 0.82
A7G G45C = 0.04
A7U C31A = 0.01
A28C G35A = 0.81
A36G C52G = 1.04
A46G C20G = 0.04
A39G G47U = 0.13
A17G G30U = 0.05
A7G G22C = 0.08
A8C G51U = 0.05
C20U G23A = 0.27
G13C G22A = 0.03
A40G G35A = 0.71
G44A G45C = 0.07
A41G C20A = 0.85
C25U G47A = 0.09
G19U U12C = 0.05
C27G G44U = 0.05
G23U U43C = 0.04
C15A G53A = 0.14
A17C U12A = 0.15
G13C G53C = 0.01
C52U G22C = 0.17
A40G G45U = 0.07
G23A U37G = 0.78
C15A G47A = 0.06
C26G G30A = 0.06
C20A G35U = 0.94
G50U U37G = 1.04
A8G G54A = 0.27
G47U U24A = 0.05
C9A G53C = 0.03
C14G G23C = 0.04
A36U G48C = 0.09
A38U A39U = 0.97
A8U C14U = 0.1
G22C G35A = 0.03
A8C U12G = 0.16
C9G G50A = 0.48
A17G G35C = 0.66
A10G G48U = 0.06
G19C U43C = 0.05
G45U G48C = 0.04
G30C G42A = 0.04
A28U C20G = 0.09
C33A G13C = 0.01
C20A G30C = 0.04
G13U G19U = 0.04
C15A C20G = 0.06
G44A U37A = 0.7
C52U G53U = 0.9
C31G G35U = 0.12
C31U G19C = 0.06
C21A G34A = 0.91
C21A C32G = 0.09
A28U G48U = 0.06
C21A G22A = 0.11
C15A G50A = 0.38
C26A G48U = 0.7
